# maps each entry to its cytotoxicity log GI50
system: OVCAR-3; assay: in vitro ovarian cancer cell growth inhibition (NCI screen)
Answer shape: numeric part, then the unit.

Example entries and their recorded answers appear below.
> print(dat)
                                   compound  reported
1  COC(=O)CCCC(=O)NC1=C(Nc2ccc(OC)cc2)C(=O)c2ccccc2C1=O [Compound 53]   -5.20 M
2  CCC(CC)n1c(C)nc2c1C(=O)c1ccccc1C2=O [Compound 10]   -4.59 M
3  Cc1nc2c(n1CCO)C(=O)c1ccccc1C2=O [Compound 16]   -4.61 M
4  COC(=O)CCC(=O)NC1=C(Nc2ccccc2)C(=O)c2ccccc2C1=O [Compound 54]   -5.52 M

Here is the next item to consider.
Item Cc1nc2c(n1C(C)(C)C)C(=O)c1ccccc1C2=O [Compound 8] has what recorded cytotoxicity log GI50?
-4.41 M

----------
system: MDA-MB-231/ATCC; assay: in vitro breast cancer cell growth inhibition (NCI screen)
# cytotoxicity log GI50 annotations

Study these solved cases before continuing.
> print(dat)
                                   compound     study.system          readout.label  reported
1  COC(=O)CCC(=O)NC1=C(Nc2ccc(OC)cc2)C(=O)c2ccccc2C1=O [Compound 56]  MDA-MB-231/ATCC  cytotoxicity log GI50   -4.63 M
2  O=C(O)CCc1nc2c(n1Cc1ccccc1)C(=O)c1ccccc1C2=O [Compound 61]  MDA-MB-231/ATCC  cytotoxicity log GI50   -4.47 M

Using the record for Cc1nc2c(n1CCCl)C(=O)c1ccccc1C2=O [Compound 21] , report its cytotoxicity log GI50.
-4.81 M

Can you share its cytotoxicity log GI50? I mean this compound: CCc1nc2c(n1CC)C(=O)c1ccccc1C2=O [Compound 23]
-4.77 M

Quick check: cytotoxicity log GI50 of CCNC1=C(NC(=O)c2ccccc2)C(=O)c2ccccc2C1=O [Compound 47] ?
-5.21 M

----------
system: SF-539; test: in vitro CNS cancer cell growth inhibition (NCI screen)
Mark MET for reported cytotoxicity log GI50 of -5 M or greater; mark NOT MET for anything smaller.

# example entries with known answers
> print(dat)
                                   molecule  category
1  O=C(Cc1ccccc1F)NC1=C(Cl)C(=O)c2ccccc2C1=O [Compound 2i]   NOT MET
2  CC(=O)NC1=C(NCC(C)C)C(=O)c2ccccc2C1=O [Compound 31]       MET
3  NC1=C(NC(=O)Cc2ccccc2F)C(=O)c2ccccc2C1=O [Compound 3b]       MET
4  CC(=O)NC1=C(NCc2ccc(Cl)cc2)C(=O)c2ccccc2C1=O [Compound 42]   NOT MET
5  COC(=O)CCC(=O)NC1=C(NCc2ccccc2)C(=O)c2ccccc2C1=O [Compound 55]       MET

Okay, next one:
Reported cytotoxicity log GI50 at or above -5 M? Cc1nc2c(n1CC(C)C)C(=O)c1ccccc1C2=O [Compound 7]
MET

----------
tested on: LXFL 529; test: in vitro non-small cell lung cancer cell growth inhibition (NCI screen)
Readout Label: cytotoxicity log GI50 (M)
Give the quantity in M, number only.

As a guide, the following entries are already answered.
> print(dat)
                                   compound  reported
1  Cc1nc2c(n1Cc1ccc(Cl)cc1)C(=O)c1ccccc1C2=O [Compound 20]     -5.26
2  O=C1c2ccccc2C(=O)c2[nH]c(Cc3ccccc3F)nc21 [Compound 4b]     -4.50
3  Cc1nc2c(n1Cc1ccc(F)cc1)C(=O)c1ccccc1C2=O [Compound 19]     -4.87

What cytotoxicity log GI50 appears in the records for this compound with LXFL 529? CCC(C)Cn1c(C)nc2c1C(=O)c1ccccc1C2=O (centres unmarked) [Compound 13]
-4.77

Query cytotoxicity log GI50 on LXFL 529 for CCC(CC)n1c(C)nc2c1C(=O)c1ccccc1C2=O [Compound 10]
-4.71
